Answer each item with its documented screen value.
B1: PLEKHM1‐LIR WT peptide (EDEWVNVQY), biotinylated [modified: biotin; biotin] [not stated] / 6xHis‐tagged LC3C [human] (parent complex)
chain 1: EDEWVNVQY
chain 2: MPPPQKIPSVRPFKQRKSLAIRQEEVAGIRAKFPNKIPVVVERYPRETFLPPLDKTKFLVPQELTMTQFLSIIRSRMVLRATEAFYLLVNNKSLVSMSATMAEIYRDYKDEDGFVYMTYASQETFG

variants of: B1; assay: peptide array ELISA (biotinylated peptide on streptavidin plate, 6xHis-mATG8, anti-His-HRP, TMB); absorbance at 450 nm; n = 4; read off a plot

Asked: Fill blank: measured screen value of the variant chain 1 V7A is ____.
Given back: ~1.4 fold over mutLIR

Asked: Next variant up: chain 1 N6A
Given back: ~1.7 fold over mutLIR

Asked: Next variant up: chain 1 V5A
Given back: ~1.5 fold over mutLIR

Asked: Next variant up: chain 1 V5A, chain 1 N6A
Given back: ~1.2 fold over mutLIR

// provenance: paper PMC5538626
